experiment: qHTS assay to identify small molecule antagonists of the vitamin D receptor (VDR) signaling pathway - cell viability counter screen (AID 743225); conditions: VDR-bla HEK293T viability, CellTiter-Glo luminescence, 16 h; series mostly up to 61 µM; note: nearly all actives have a fitted effect of over 50% in size
Results filed as inconclusive are left out. Calls of active or inactive are those of the source. Calls come from the whole dose curve; as a rule, active = well fitted cell-killing curve with a large enough effect in the repeat runs; inconclusive = weak or mixed curves, or effect the other way; inactive = no such curve, though single readings can be large or run the other way.

| structure smiles | outcome |
| --- | --- |
| Cc1[nH]c(=O)c(C#N)cc1-c1ccncc1 | inactive |
| Clc1nc(Cl)c(Cl)c(Cl)c1Cl | inactive |
| O=S(=O)(O)c1ccc(O)cc1 | inactive |

====

biological target: Nuclear receptor subfamily 1 group I member 3 (Homo sapiens) (UniProt Q14994); experiment: qHTS assay to identify small molecule agonists of the constitutive androstane receptor (CAR) signaling pathway (AID 1224839); conditions: HepG2 hCAR CYP2B6-luciferase, agonist mode, 24 h; series mostly up to 92.4 µM; note: nearly all actives have a fitted effect of over 15% in size;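 for activation: HepG2 cells stably carrying human CAR and a CYP2B6 luciferase reporter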
Sequence (Q14994 whole entry, looked up): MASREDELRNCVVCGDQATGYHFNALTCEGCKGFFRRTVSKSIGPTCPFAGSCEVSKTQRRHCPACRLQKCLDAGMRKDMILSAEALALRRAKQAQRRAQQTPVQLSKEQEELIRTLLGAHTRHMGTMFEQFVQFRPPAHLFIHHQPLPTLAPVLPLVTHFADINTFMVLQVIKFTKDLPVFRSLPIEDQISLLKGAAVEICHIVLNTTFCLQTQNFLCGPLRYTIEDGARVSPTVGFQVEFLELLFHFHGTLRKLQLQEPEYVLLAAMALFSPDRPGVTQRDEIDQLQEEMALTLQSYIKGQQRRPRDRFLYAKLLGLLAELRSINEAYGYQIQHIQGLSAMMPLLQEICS
Records with an inconclusive call do not appear. Active and inactive are the calls of the source. Calls come from the whole dose curve; as a rule, active = well fitted activation curve with a large enough effect in the repeat runs; inconclusive = weak or mixed curves; inactive = no such curve, though single readings can be large or run the other way.
Labels: active, inactive

| molecule | label value |
| --- | --- |
| CC(=O)c1ccccn1 | inactive |
| CCC(C)(O)CCCC(C)C (stereo unspecified) | inactive |
| COC(=O)CCC(=O)OC | inactive |
| O=C(/C=C/c1ccccc1)OCc1ccccc1 | active |
| CCC(C)CO (stereo unspecified) | inactive |
| COC(=O)C1=C(C)NC(C)=C(C(=O)OCCN(C)Cc2ccccc2)C1c1cccc([N+](=O)[O-])c1 (stereo unspecified) | inactive |

====

assay: A CellTox Green Cytotoxicity Assay to monitor cytotoxicity in HepG2 cells - 16 hour (AID 1224876); details: CellTox Green fluorescence; series mostly up to 76.8 µM; note: nearly all actives have a fitted effect of over 45% in size
Results filed as inconclusive are left out. Activity calls are given as the source filed them. Calls come from the whole dose curve; as a rule, active = well fitted activation curve with a large enough effect in the repeat runs; inconclusive = weak or mixed curves; inactive = flat fitted curve, though single readings scatter.
Labels: active, inactive

| molecule | label value |
| --- | --- |
| NC=O | inactive |
| C=C(C)C1CC=C(C)CC1 (stereo not given) | inactive |
| S=C(NC1CCCCC1)NC1CCCCC1 | inactive |
| Nc1ccc(Nc2ccccc2)cc1 | inactive |
| CCCc1c(OCCCCc2nn[nH]n2)ccc(C(C)=O)c1O | inactive |
| CC(C)OC=O | inactive |
| c1ccc2c(c1)Oc1ccccc1S2 | inactive |
| CCCCOCCOCCO | inactive |
| CCCC(=O)O | inactive |
| c1cc(N(CC2CO2)CC2CO2)ccc1OCC1CO1 (stereo not given) | inactive |
| O=c1oc(=O)c2cc3c(=O)oc(=O)c3cc12 | inactive |
| CCC(C)c1ccccc1O (stereo not given) | inactive |
| CCCCC(CC)COP(=O)(OCC(CC)CCCC)OCC(CC)CCCC (stereo not given) | inactive |
| O=C(/C=C/c1ccccc1)OCc1ccccc1 | inactive |
| C[C@]12CCC(=O)C=C1CC[C@@H]1[C@@H]2C(=O)C[C@@]2(C)[C@H]1CC[C@]2(O)C(=O)CO | inactive |
| Nc1ccc(Cl)cc1Cl | inactive |
| O=C(Nc1ccc(Cl)cc1)Nc1ccc(Cl)c(Cl)c1 | inactive |
| CN(C)CCC=C1c2ccccc2CCc2ccccc21 | active |
| CC(C(=O)O)c1cccc(C(=O)c2ccccc2)c1 (stereo not given) | inactive |
| CC(C)CC(C)(O)C#CC(C)(O)CC(C)C (stereo not given) | inactive |
